Give measured pKi for each item. Keep answers brief.
- TESTED_SYSTEM: D(1A) dopamine receptor (Sus scrofa)
- Sequence (P50130 whole entry): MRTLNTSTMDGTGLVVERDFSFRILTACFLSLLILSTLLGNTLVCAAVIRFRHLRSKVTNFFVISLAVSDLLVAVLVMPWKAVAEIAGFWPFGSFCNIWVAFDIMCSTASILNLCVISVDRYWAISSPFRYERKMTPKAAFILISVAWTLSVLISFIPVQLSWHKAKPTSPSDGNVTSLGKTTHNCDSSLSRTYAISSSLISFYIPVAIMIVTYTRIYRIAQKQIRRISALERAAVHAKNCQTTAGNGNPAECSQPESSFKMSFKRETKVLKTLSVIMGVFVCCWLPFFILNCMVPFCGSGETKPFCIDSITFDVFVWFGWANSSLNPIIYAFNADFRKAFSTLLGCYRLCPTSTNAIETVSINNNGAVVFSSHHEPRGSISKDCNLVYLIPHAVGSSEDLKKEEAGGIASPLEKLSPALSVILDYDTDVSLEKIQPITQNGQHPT
- MEASUREMENT_NOTES: Displacement of [3H]SCH23390 from D1 receptor from porcine cerebral cortex homogenates
Hey, just a heads up that pKi is the negative log base 10 of the concentration in molar.

[in] What value of pKi has been reported for the following molecule? COc1cc(CN2CCN(c3ccccc3OC)CC2)ccc1OCCCc1cn(CCCCCCCCn2cc(CCCOc3ccc(CN4CCN(C5CCCCC5)CC4)cc3OC)nn2)nn1
[out] 6.32

[in] What value of pKi has been reported for the following molecule? CCCc1cn(CCCCCCCCn2cc(CCCOc3ccc(CN4CCN(c5ccccc5OC)CC4)cc3OC)nn2)nn1
[out] 6.40

[in] What value of pKi has been reported for the following molecule? CCCCn1cc(COc2ccc(CN3CCN(c4ccccc4OC)CC3)cc2OC)nn1
[out] 5.64

[in] What value of pKi has been reported for the following molecule? COc1cc(CN2CCN(c3ccccc3OC)CC2)ccc1OCCCc1cn(CCOCCOCCn2cc(CCCOc3ccc(CN4CCN(c5ccccc5OC)CC4)cc3OC)nn2)nn1
[out] 6.66

[in] What value of pKi has been reported for the following molecule? COc1cc(CN2CCN(c3ccccc3OC)CC2)ccc1OCCCCc1cn(CCCCCCCCCCn2cc(CCCCOc3ccc(CN4CCN(c5ccccc5OC)CC4)cc3OC)nn2)nn1
[out] 6.52

[in] What value of pKi has been reported for the following molecule? COc1cc(CN2CCN(C)CC2)ccc1OCCCc1cn(CCCCCCCCn2cc(CCCOc3ccc(CN4CCN(c5ccccc5OC)CC4)cc3OC)nn2)nn1
[out] 6.01

[in] What value of pKi has been reported for the following molecule? CCOCCn1cc(COc2ccc(CN3CCN(c4ccccc4OC)CC3)cc2OC)nn1
[out] 5.42
